# TGT: T1, irrelevant Fc-tagged protein
# T1 construct: ELISA control; also called irrelevant Fc construct
# MEASUREMENT_PROTOCOL: ELISA; note: unit not given here
MEASURED_PROPERTY: ELISA

BINDER | ELISA
SC91.19 (antibody, V domains shown) VH: QIQLVQSGPELKKPGETVKISCKASGYTFTTYGMNWVKQAPGKGLKWMGWINTYSGVPSSANDFKGRFAFSLETSASTAYLQINNLKNEDTATYFCARSELRNWYFDVWGTGTTVTVSS VL: SFVMTQTPKFLLVSAGDRVTITCKASQSVGNDVAWYQQKPGQSPKLLIYYASNRYTGVPDRFTGSGYGTDFTFTISTVQAEDLAVYFCQQDYSSPFTFGSGTKLEMK | 0.05

Need ELISA, item SC91.1 (murine anti-BMPR1B antibody) (antibody, V domains shown, Murine hybridoma antibody with a kappa light chain) VH: QVQLQQPGAELVKPGASVKLSCKASGYTFTSYWMQWVKQRPGQGLEWIGEIDPSDNYTLYNQKFKGKATLTVDTSSSTAYMQLSSLTSEDSAVYYCARFGYYVDYWGLGTTLTVSS VL: DVVMTQTPLSLPVSLGDQASIFCRSSQSLVHSTGNTYLHWYLQKPGQSPKLLIYKVSNRFSGVPDRFSGSGSGTDFTLKISRVEAEDLGVYFCSQSTHVPFTFGSGTKLEIK 0.039

Need ELISA, item SC91.27 (murine anti-BMPR1B antibody) (antibody, V domains shown, Murine hybridoma antibody with the same VL as SC91.20) VH: QVQLQQPGAEVVKPGASVKLSCKASGYTFTNYWMQWVKQRPGQGLEWIGEIDPSDRYTMYNQKFKGKATLIVDTSSSTAYMQLSSLTSEDSAVYFCARFGYYVDYWGQGTTLTVSS VL: DVVMTQTPLSLPVSLGDQASISCRSSQSLVHSTGNTYLHWYLQKPGQSPNLLIYKVSNRFSGVPDRFSGSGSGTDFTLKISRVEAEDLGVYFCSQSTHVPFTFGSGTKLEIK 0.042

Need ELISA, item SC91.3 (murine anti-BMPR1B antibody) (antibody, V domains shown, Murine hybridoma antibody) VH: QVQLQQPGAELVKPGASVKLSCKASGYTFTSYWMQWVKQRPGQGLEWIGEIDPSDSYTLYNQKFKGKATLTVDTSSSTAYMQLSSLTSEDSAVYFCARFGYYIEYWGQGTTLTVSS VL: DVVMTQTPLSLPVSLGDQASISCRSSQSLVHSTGNTYLHWYLQKPGQSPKLLIYKVSNRFSGVPDRFSGSGSGTDFTLKISRVEAEDLGVYFCSQSTHVPFTFGSGTKLEIK 0.039

Need ELISA, item SC91.11 (antibody, V domains shown) VH: QVQLQQPGAELVKPGASVKLSCKASGYTFTTYWMHWVKQRPGRGLEWIGRIDPNSGGTKYNEKFKSKATLTVDKPSSTACMQLSSLTSEDSAVYYCASRRGDIDVWGTGTTVTVSS VL: DIVMTQSQKFMSTSVGDRVSVTCKASQNVGTNVFWYQQKPGQSPKALIYAASYRYSGVPDRFTGSGSGTDFTLTISNVQSEDLADYFCQQYDSYPLTFGDGTKLELR 0.04

Need ELISA, item SC91.9 (murine anti-BMPR1B antibody) (antibody, V domains shown, Murine hybridoma antibody) VH: QVQLQQPGAELVKPGASVKLSCKASGYTFISYWMHWVKQRPGQGLEWIGMIHPNSGSTNYNESFKSKATLTVDKSSSTAYMQLSSLTSEDSAVYYCARDLLIATVVVTPYFAYWGQGTILTVSS VL: DIQMTQTTSSLSASLGDRVTISCRASQDISNFLNWYQQKPDGTIKFLIYYTSRLHSGVPSRFSGSGSGTDYSLTIRNLEQEDIATYFCQQGNTLPYTFGGGTKLEIK 0.042

Need ELISA, item SC91.20 (antibody, V domains shown) VH: QVQLQQPGAEVVRPGASLKLSCKASGYTFTSYWMQWIKQRPGQGLEWIGEIDPSDNYTMYNQKFKGKATLTVDTSSSTAYMQLSSLTSEDSAVYFCARFGFYVDYWGQGTTLTVSS VL: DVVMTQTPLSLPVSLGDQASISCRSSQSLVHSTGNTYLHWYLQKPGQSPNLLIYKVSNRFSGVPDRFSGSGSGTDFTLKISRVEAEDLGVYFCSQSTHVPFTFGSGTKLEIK 0.041

Data credit: patent US20190153103A1
